# Test system: tobacco cutworm
# experimentDescription: Long-lasting insecticidal effect on tobacco cutworm (sprayed cabbage plantlet)
# Type: in vivo, Prodenia litura
# conditionContext: Table 5; concentration 500 (unit not given); leaves cut on 3rd day, mortality after 48 hours
measuredParameter: Percent Mortality After Application 3rd Day (%)
State the answer as a number, implicitly in %.

COP1(=S)OCc2ccccc2O1 (stereo not drawn) [Salithion, reference compound] ... 20
CCCSP(=S)(OC)Oc1ccc2c(c1)OC(C)=CC2(C)C (stereo not drawn) ... 100
CCCSP(=O)(OCC)Oc1ccc2c(c1)OC(C)(C)C=C2C (stereo not drawn) ... 100
CNC(=O)ON=C(C)SC [Lannate, reference compound] ... 80
CCCSP(=O)(OC)Oc1ccc2c(c1)OC(C)=CC2(C)C (stereo not drawn) ... 100

Could you share which Percent Mortality After Application 3rd Day value was measured for CCC(C)SP(=O)(OC)Oc1ccc2c(c1)OC(C)=CC2(C)C (stereo not drawn) ? 100

Could you share which Percent Mortality After Application 3rd Day value was measured for CCCSP(=O)(OCC)Oc1ccc2c(c1)OC(C)CC2(C)C (stereo not drawn) ? 100

Could you share which Percent Mortality After Application 3rd Day value was measured for CCCSP(=S)(OCC)Oc1ccc2c(c1)OC(C)=CC2(C)C (stereo not drawn) ? 100

Could you share which Percent Mortality After Application 3rd Day value was measured for CCCSP(=O)(OCC)Oc1ccc2c(c1)OC(C)=CC2(C)C (stereo not drawn) ? 100

----------
In this section we review reported Number of Living Mites after Application 28th Day values for a set of compounds.
# Tested on: carmine mites resistant to Kelthane
# experimentDescription: Miticidal effect on carmine mite resistant to Kelthane (sprayed egg plant seedling)
# Assay type: in vivo, Tetranychus cinnabarius
# conditionContext: Table 13; 500 ppm; egg plant seedling; Formulation Example 1
Enter the number alone.

CCCSP(=O)(OCC)Oc1ccc2c(c1)OC(C)=CC2(C)C (centres unmarked) ... 10
OC(c1ccc(Cl)cc1)(c1ccc(Cl)cc1)C(Cl)(Cl)Cl [Kelthane, reference compound] ... 269
CCCSP(=S)(OC)Oc1ccc2c(c1)OC(C)=CC2(C)C (centres unmarked) ... 0
CCOP(=O)(Oc1ccc2c(c1)OC(C)=CC2(C)C)SC(C)CC (centres unmarked) ... 54
CCCCSP(=O)(OCC)Oc1ccc2c(c1)OC(C)=CC2(C)C (centres unmarked) ... 29
CCOP(=S)(Oc1ccc2c(c1)OC(C)=CC2(C)C)SC(C)CC (centres unmarked) ... 48
CCCSP(=S)(OCC)Oc1ccc2c(c1)OC(C)=CC2(C)C (centres unmarked) ... 16

Could you share which Number of Living Mites after Application 28th Day value was measured for CCCSP(=O)(OC)Oc1ccc2c(c1)OC(C)=CC2(C)C (centres unmarked) ? 11

----------
# Tested on: tobacco cutworm
# experimentDescription: Long-lasting insecticidal effect on tobacco cutworm (sprayed cabbage plantlet)
# Format: in vivo, Prodenia litura
# conditionContext: Table 6; concentration 500 (unit not given); leaves cut on 7th day, mortality after 48 hours
measuredParameter: Percent Mortality After Application 7th Day
Reply with the number, then its unit.

Consider the worked cases shown below.
CCCSP(=O)(OCC)Oc1cccc2c1C(C)=CC(C)(C)O2 (stereo not shown) [Compound No. 22] ... 73.3%
CCCSP(=O)(OCC)Oc1ccc2c(c1)OC(C)CC2(C)C (stereo not shown) [compound 17] ... 100%
CCC(C)SP(=O)(OC)Oc1ccc2c(c1)OC(C)(C)C=C2C (stereo not shown) [Compound No. 24] ... 60.0%

Requested read-out Percent Mortality After Application 7th Day, target or system tobacco cutworm, entry CCCSP(=O)(OCC)Oc1ccc2c(c1)OC(C)(C)C=C2C (stereo not shown) [Compound No. 20] 100%

----------
# System: carmine mites
# experimentDescription: Miticidal effect on carmine mite (sprayed kidney bean seedling)
# Format: in vivo, Tetranychus cinnabarius
# conditionContext: 500 ppm
measuredParameter: Number of Living Mites after Application 14th Day

Consider the worked cases shown below.
CCCSP(=O)(OCC)Oc1ccc2c(c1)OC(C)=CC2(C)C (stereo not drawn) ... 0
CCCSP(=O)(OC)Oc1ccc2c(c1)OC(C)=CC2(C)C (stereo not drawn) ... 0
CCCSP(=S)(OCC)Oc1ccc2c(c1)OC(C)=CC2(C)C (stereo not drawn) ... 0
CCCSP(=S)(OC)Oc1ccc2c(c1)OC(C)=CC2(C)C (stereo not drawn) ... 0
CCCCSP(=O)(OCC)Oc1ccc2c(c1)OC(C)=CC2(C)C (stereo not drawn) ... 0

Here is the next item to consider.
Could you share which Number of Living Mites after Application 14th Day value was measured for CCOP(=O)(Oc1ccc2c(c1)OC(C)=CC2(C)C)SC(C)CC (stereo not drawn) ? 0

----------
# System: Tomato
# experimentDescription: Phytotoxicity on various crops
# Format: in vivo
# Design: key: Symbol — indicates that no toxicity was observed
# conditionContext: 500 ppm sprayed; checked visually after 10 days
measuredParameter: Phytotoxicity: Tomato

Consider the worked cases shown below.
CCCSP(=S)(OCC)Oc1cccc2c1C(C)=CC(C)(C)O2 (centres unmarked) ... —
CCCSP(=O)(OC)Oc1ccc2c(c1)OC(C)=CC2(C)C (centres unmarked) ... —
CCCCOP(=O)(Oc1ccc2c(c1)OC(C)=CC2(C)C)SCCC (centres unmarked) ... —
CCCSP(=O)(OCC)Oc1ccc2c(c1)OC(C)CC2(C)C (centres unmarked) ... —
CCOP(=O)(Oc1ccc2c(c1)OC(C)=CC2(C)C)SC(C)C (centres unmarked) ... —
CCCOP(=O)(Oc1ccc2c(c1)OC(C)=CC2(C)C)SCCC (centres unmarked) ... —

Requested read-out Phytotoxicity: Tomato, target or system Tomato, entry CCCSP(=O)(OCC)Oc1ccc2c(c1)OC(C)=CC2(C)C (centres unmarked) —

Requested read-out Phytotoxicity: Tomato, target or system Tomato, entry CCOP(=O)(Oc1cccc2c1C(C)=CC(C)(C)O2)SC(C)CC (centres unmarked) —

Requested read-out Phytotoxicity: Tomato, target or system Tomato, entry CCCSP(=O)(OCC)Oc1ccc2c(c1)OC(CC)=C(C)C2(CC)CC (centres unmarked) —

Requested read-out Phytotoxicity: Tomato, target or system Tomato, entry CCC(C)SP(=O)(OC)Oc1ccc2c(c1)OC(C)(C)C=C2C (centres unmarked) —

Requested read-out Phytotoxicity: Tomato, target or system Tomato, entry CCOP(=S)(Oc1ccc2c(c1)OC(C)=CC2(C)C)SC(C)CC (centres unmarked) —

----------
# System: carmine mites
# experimentDescription: Miticidal effect on carmine mite (sprayed kidney bean seedling)
# Format: in vivo, Tetranychus cinnabarius
# conditionContext: 500 ppm
measuredParameter: Number of Living Mites after Application 21st Day
Enter the number alone.

Consider the worked cases shown below.
CCCSP(=O)(OCC)Oc1ccc2c(c1)OC(C)=CC2(C)C (stereo not drawn) [Compound No. 2] ... 0
CCOP(=O)(Oc1ccc2c(c1)OC(C)=CC2(C)C)SC(C)CC (stereo not drawn) [compound 6] ... 4
CCCCSP(=O)(OCC)Oc1ccc2c(c1)OC(C)=CC2(C)C (stereo not drawn) [Compound No. 5] ... 16
CCCSP(=O)(OC)Oc1ccc2c(c1)OC(C)=CC2(C)C (stereo not drawn) [Compound No. 1] ... 0
CCCSP(=S)(OC)Oc1ccc2c(c1)OC(C)=CC2(C)C (stereo not drawn) [Compound No. 9] ... 0

Could you share which Number of Living Mites after Application 21st Day value was measured for CCCSP(=S)(OCC)Oc1ccc2c(c1)OC(C)=CC2(C)C (stereo not drawn) [Compound No. 10] ? 2

----------
# Tested on: Kidney Bean
# experimentDescription: Phytotoxicity on various crops
# Format: in vivo
# Design: key: Symbol — indicates that no toxicity was observed
# conditionContext: 500 ppm sprayed; checked visually after 10 days
measuredParameter: Phytotoxicity: Kidney Bean

Consider the worked cases shown below.
CCCSP(=O)(OCC)Oc1ccc2c(c1)OC(CC)=C(C)C2(CC)CC (stereo not drawn) [Compound No. 21] ... —
CCC(C)SP(=O)(OC)Oc1ccc2c(c1)OC(C)(C)C=C2C (stereo not drawn) [Compound No. 24] ... —
CCCSP(=O)(OCC)Oc1cccc2c1C(C)=CC(C)(C)O2 (stereo not drawn) [Compound No. 22] ... —
CCCSP(=O)(OCC)Oc1ccc2c(c1)OC(C)=CC2(C)C (stereo not drawn) [Compound No. 2] ... —

Requested read-out Phytotoxicity: Kidney Bean, target or system Kidney Bean, entry CCCSP(=O)(OC)Oc1ccc2c(c1)OC(C)=CC2(C)C (stereo not drawn) [Compound No. 1] —

Requested read-out Phytotoxicity: Kidney Bean, target or system Kidney Bean, entry CCOP(=O)(Oc1ccc2c(c1)OC(C)=CC2(C)C)SC(C)C (stereo not drawn) [compound 14] —

----------
# Test system: tobacco cutworm
# experimentDescription: Long-lasting insecticidal effect on tobacco cutworm (sprayed cabbage plantlet)
# Format: in vivo, Prodenia litura
# conditionContext: Table 6; concentration 500 (unit not given); leaves cut on 3rd day, mortality after 48 hours
measuredParameter: Percent Mortality After Application 3rd Day (%)
State the answer as a number, implicitly in %.

Consider the worked cases shown below.
CCC(C)SP(=O)(OC)Oc1ccc2c(c1)OC(C)(C)C=C2C (centres unmarked) [Compound No. 24] ... 100
CCCSP(=O)(OCC)Oc1ccc2c(c1)OC(C)(C)C=C2C (centres unmarked) [Compound No. 20] ... 100
CCCSP(=O)(OCC)Oc1cccc2c1C(C)=CC(C)(C)O2 (centres unmarked) [Compound No. 22] ... 100
COP1(=S)OCc2ccccc2O1 (centres unmarked) [Salithion, reference compound] ... 0

Could you share which Percent Mortality After Application 3rd Day value was measured for CCCSP(=O)(OCC)Oc1ccc2c(c1)OC(C)CC2(C)C (centres unmarked) [compound 17] ? 100
